experiment: yeast display, Sf9 membrane polyspecificity reagent, FACS + sequencing; frameworks hold sequencing errors
recorded_metric: polyreactivity (PSR sort gate)

Input: // query polyreactivity (PSR sort gate) value for entry "QVHLVESGGGLVQAGGSLRLSCAASGNIFGVYAMGWYRQAPGKERELVAAISDSTYYADSVKGRFTISRDNAKNTVYLQMTSLKPEDTAVYYCAAAVLGRYSAGDGYWGQGPQVTVSS"
Output: low polyreactivity

Input: // query polyreactivity (PSR sort gate) value for entry "QVQLVESGGGLVQAGGSLRLSCAASGGIFSTNGMGWYRQAPGKERELVATISYGGGSTSYADSVKGRFTISRDNAKNTVYLHMNSLKPEDTAVYYCAADSFGYNSWYNYDYWGQGSQVTVSS"
Output: low polyreactivity

====

assay: yeast display, Sf9 membrane polyspecificity reagent, FACS + sequencing; frameworks hold sequencing errors
recorded_metric: polyreactivity (PSR sort gate)

Input: // query polyreactivity (PSR sort gate) value for entry "QVQLVESGGGLVQAGGSLRLSCAASGYIFNPNAMGWYRQAPGKERELVAAITWSGGNTYYADSVKGRFTISRDNAKNTVYLQMNSLKPEDTAVFYCNAEYRWPYWGQWYFKGYDYWGQGTQVTVSS"
Output: low polyreactivity

Input: // query polyreactivity (PSR sort gate) value for entry "QVQLVESCGGLVQAGGSLRLSCAASGSTFSLYGMGWYRQAPAKERELVATITYSGGRTYYADSVKGRFTISLDNAKNTVYLQLNSLKPEDTAVYYCAARLAPLYRTYYYWGQGTQVTVSS"
Output: low polyreactivity

Input: // query polyreactivity (PSR sort gate) value for entry "QVQLVESGGGLVQAGGSLRLSCAASGIIFRAYAMGWYRQAPGKERELVAAITSRGGSTYYADSVKGRFTISRDNAKNTVYLQMNSLKPEDTAVYYCAADFTIPYWDAKFDYWGQGTQVTVSS"
Output: low polyreactivity

====

assay: yeast display, Sf9 membrane polyspecificity reagent, FACS + sequencing; frameworks hold sequencing errors
recorded_metric: polyreactivity (PSR sort gate)

// known answers, use as guide
Input: // query polyreactivity (PSR sort gate) value for entry "QVQLVESGVGLVQAGGSHRLSCAASGSIFGFYVMGWYRQAPGKERELVAAISRGGTRTYYADSVKGRFTISRDNAKNTVYLQMNSLKPEDTAVYYCAKYDGGSGTGPRSDYWGQGTQVTVSS"
Output: high polyreactivity

Input: // query polyreactivity (PSR sort gate) value for entry "QVQLVESGGGLVQAGGSLRLSCAASGSTFAYYAMGWYRQAPGKERELVAAISASGSRTYYADSVKGRFTISRDNAKNTVYLQMNSLKPEDTAVYYCAALQYRRKIPTAYAGDYWGQGTQVTVSS"
Output: high polyreactivity

Input: // query polyreactivity (PSR sort gate) value for entry "QVQLVESGGGLVQAGGSLRLSCAASGSTFYWYTMGWYRQAPGKERELVARISSSGSTNYADSVKGRFTISRDNAKNTVYFQMNSLKPEDTAVYYCNKDWIYRGYDYWGQGTQVTVSS"
Output: high polyreactivity

Input: // query polyreactivity (PSR sort gate) value for entry "QVQHVESGGGLVQAGGSLRLSCAASGFIFSSYAIGWYRQAPGKEREFVASIRRRGGSTYYAYSVKGRFTISRDNAKNTVILQMNRLIPEDTAVYYCAREVYRHFAPVGYDYWGQGTQVTVSS"
Output: high polyreactivity

Input: // query polyreactivity (PSR sort gate) value for entry "QVQHVESAGGLVQAGGSLSLSCAASGSIFNLYAMGWYRQAPGKERELVAAIRWDGGSTYNADSVKGRFTISRDTAKNTVYLQMNSLKPEDTAVYYCAAETVYFRLLILDYWGQGTQVTVSS"
Output: high polyreactivity

Continuing:
Input: // query polyreactivity (PSR sort gate) value for entry "QVQLVESGGGLVQAGGSLRLSCAASGSTFGYNAMGWSRPAPGKERELVAAITWSGGSTYYADSVKGRFTISRDNAKNTVYLQMNSLKPEDTAVYYCAADDWYNSKWHYYYWGQGTQVTVSS"
Output: low polyreactivity

Input: // query polyreactivity (PSR sort gate) value for entry "QVQLLESGGGLVQAGGSLRLSCAASGSIFTEYAMGWYRQAPGKERELVAAITYSGGSTYYADSVKGRFTISRDNAKNTVYLQMHSLKPDDTAVYYCNADYRIYVAYYYWGQGTQVTVSS"
Output: low polyreactivity

Input: // query polyreactivity (PSR sort gate) value for entry "QVHLVESGGGLVQAGGSLRLRCAASGIIYVRYAMGWYRHAPGKERELVAAISWSGGSTYYADSVKGRFTISRDNAKNTVYLQMNSLKPEDTAVYYCAADSHRTRGYARYFYWGQGTQVTVSS"
Output: high polyreactivity

Reference for the values: the nanobody polyreactivity screen of Harvey et al. (2022)
